Recorded PD1 Binding for the following binders
# targetOrSystem: PD-1 (human, UniProt Q15116 25-167, limits assumed)
# Sequence (Q15116 25-167 limits assumed): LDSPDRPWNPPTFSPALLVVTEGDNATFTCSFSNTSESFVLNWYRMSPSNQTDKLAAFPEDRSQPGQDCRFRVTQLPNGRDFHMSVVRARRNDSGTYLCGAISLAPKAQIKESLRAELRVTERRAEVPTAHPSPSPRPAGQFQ
# assayRemarks: HTRF
Write the number on its own, no unit after it.

# count of solved cases: 2
[
  {
    "binder": "PD1-IL2-R02-A08 (scFv, V domains shown, cf) VH: QVQLVQSGAEVKKPGASVKVSCKVSGYTFTSYDINWVRQAPGQGLEWMGWINPNSGDTGYAQKFQGRVTMTRDTSTSTVYMELSSLRSEDTAVYYCARDTGLGYYYGSGDFDYWGQGTLVTVSS VL: DIQMTQSPSSLSASVGDRVTITCQASQDIHNYLNWYQQKPGKAPKLLIYDVSNLETGVPSRFSGSGSGTDFTLTISSLQPEDFATYYCQQAISFPLTFGGGTKVEIK",
    "value": 995
  },
  {
    "binder": "PD1-R04-C10 (scFv, tied by the comment 'PD1_R04_C10- Internal anti-PD1 mAb' of PEP001315) scFv: MSTSTEQKLISEEDLQVQLVQSGAEVKKPGASVKVSCKASGYTFTTYYMHWVRQAPGQGLEWMGIINPSGGGTLYAQKFQGRVTMTRDTSTSTVYMELSSLRSEDTAVYYCAAGLFIWGQGTTVTVSSASGGGGSGGGGSGGGGSHASDIVMTQSPDSLAVSLGERATINCKASQSLLHSSSNKNYLAWYQQKPGQPPKLLIYWASTRESGVPDRFSGSGSGTDFTLTISSLQAEDVAVYYCQQYYSTPITFGPGTKVDIKGSGLNDIFEAQKIEWHEGKPIPNPLLGLDST",
    "value": 1550
  }
]

# lookup: PD1 Binding of PD1-IL2-R02-C02 (SEQ ID NO: 31) (scFv, V5-tagged in the assay) scFv: QVQLVQSGAEVKKPGVSVKVSCKASGYTFPRSYIHWVRQAPGQGLEWMGWINPHSGDTYYAQNFQGRVTMTRDTSTSTVYMELSSLRSEDTAVYYCARDTGLGYYYGSGDFDYWGQGTLVTVSSASGGGGSGGGGSGGGGSHASDIQMTQSPSSLSASVGDRVTITCRASQSISRYLNWYQQKPGKAPKLLIYTASSLQSGVPSRFSGSGSGTDFTLTISSLQPEDFATYYCQQANRFPLTFGPGTKVDIK 1300

# lookup: PD1 Binding of PD1-IL2-R06-E04 (SEQ ID NO: 33) (scFv, V5-tagged in the assay) scFv: QVQLVQSGAEVKKPGASVKVSCKASGYTFTRYYIHWVRQAPGQGLEWMGWINAYNGDTNYAQKLQGRVTMTRDTSTSTVYMELSSLRSEDTAVYYCARDSYYYDSFDYWGQGTLVTVSSASGGGGSGGGGSGGGGSHASDIQMTQSPSSLSASVGDRVTITCRASQTITDWLAWYQQKPGKAPKLLIYGASNLQGGVPSRFSGSGSGTDFTLTISSLQPEDFATYYCQQYYSSWTFGQGTKVEIK 50
